# experimentalProtocol: Ratio of drug concentration in rat uterus to plasma at 20 mg/kg, po measured after 2 hrs
# condition: female

{"smilesString": "CC(F)(F)c1cc(Cl)ccc1-c1sc2c(ccc3[nH]ncc32)c1Oc1ccc(OC2CN(CCCF)C2)cc1", "Kp at 2 h": 3.6}

###

# experimentalProtocol: Tmax in Sprague-Dawley rat at 10 mg/kg, po measured up to 24 hrs by LC/MS/MS analysis
# Format: ADME, organism-based
# condition: in vivo
readoutName: Tmax (h)

{"smilesString": "CC(F)(F)c1cc(Cl)ccc1-c1sc2c(ccc3[nH]ncc32)c1Oc1ccc(OC2CN(CCCF)C2)cc1", "measValue": 3.3}
